Hey, just so you know, these numbers are from ChEMBL document CHEMBL1201862.

EXPERIMENT NOTES: NIH3T3 cell viability loss – ATP luminescence, mouse fibroblasts, counter-screen, dose response (AID 2010);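 note: cells exposed to compound for about 90 hours before reading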
Assay type: functional, cell-based
Calls of active or inactive are those of the source. Cut-off read from the data, not from the text of the source: actives have a measured EC50 and inactives only a lower limit.
# EC50 annotations

>  <COMPOUND>
CCN(CC)CCCOC(=O)c1ccc(OC)cc1O

>  <EC50>
> 60 µM (not active)

$$$$
>  <COMPOUND>
CCOc1cc(C)c(C(C)C)cc1S(=O)(=O)n1cnc(C)c1

>  <EC50>
8.49 µM (active)

$$$$
>  <COMPOUND>
CCS(=O)(=O)NCC(c1cccnc1)N1CCN(c2ccc(OC)cc2)CC1 (centres undefined)

>  <EC50>
22 µM (active)

$$$$
>  <COMPOUND>
CCOC(=O)N1CCC(N2CCCC(C(=O)c3cc(F)ccc3OC)C2)CC1 (centres undefined)

>  <EC50>
> 60 µM (not active)

$$$$
